Origin of the recorded values: ChEMBL document CHEMBL5058577

# Tested on: U2OS
# TEST_METHOD_NOTES: Multiplex assay against U2OS
# Assay type: toxicity, cell-based
# TEST_SETTINGS: human, 48 h, 10 µM, compound concentration 10 uM, replicate 1
REPORTED_METRIC: Total Cell Count
When you answer, write just the number.

For orientation, consider the following solved cases.
MOLECULE	ASSAY_RESULT
COC[C@@H](c1ccc(C(F)(F)F)cc1)N1CCN(C2(C)CCN(C(=O)c3c(C)ncnc3C)CC2)C[C@@H]1C.O=C(O)/C=C\C(=O)O [VICRIVIROC MALEATE]	437
O=C1[C@H](Cc2ccc(O)cc2)N2C(=O)CCN(C(=O)NCc3ccccc3)[C@H]2CN1Cc1cccc2ccccc12	252
CC(C)COc1ccc(CNC(=O)N(Cc2ccc(F)cc2)C2CCN(C)CC2)cc1	222

Now turn to the next molecule.
Problem: Fill in Total Cell Count for record "N#Cc1c(Oc2cccc(OS(=O)(=O)CCCC(F)(F)F)c2)cccc1C(F)(F)F"
Solution: 328
